# credit: PubChem BioAssay (NCI)

Listing of entries alongside the reported growth inhibition.
MEASUREMENT_NOTES: NCI Yeast Anticancer Drug Screen. Data for the rad50 strain (AID 155);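 note: 0% = growth of vehicle-only cultures of the same strain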
MEASUREMENT_CONTEXT: S. cerevisiae rad50 strain growth inhibition; at 50.0 µM; stronger effect = higher value
About 79,000 compounds went through this panel and 15% of them were active in at least one assay; those are over-represented in the sample as a whole.

# COMPOUND, DISPLAY_UNIT, growth inhibition
rows = [
    ("CC([Se])=Nc1ccc(Br)cc1", "%", 21.6),
    ("C=CC1CN2CCC1CC2C(O)c1ccnc2ccccc12 (stereo unspecified)", "%", 11.9),
    ("O=c1[nH]c2ccc([As](O)O)cc2[nH]1", "%", -14.8),
    ("CCC(=O)OC1(c2ccccc2)CCN(CCC(O)c2ccccc2)CC1C (stereo unspecified)", "%", -14.9),
    ("CCCCC(CC)COP(OCC(CC)CCCC)OCC(CC)CCCC (stereo unspecified)", "%", 22.1),
    ("CC1=C(C)CN(CCc2c[nH]c3ccccc23)C(C#N)C1 (stereo unspecified)", "%", 0.6),
]
